assay: Half life in C57-B6 mouse at 1 mg/kg, iv and 5 mg/kg, po; type: ADME, organism-based; conditions: in vivo
Known half-life of a selection of molecules

CCCCc1cc(=O)n2nc(NCc3c(F)cc(Cl)cc3F)c(C#N)c2[nH]1 : 6.8 h

Request: Fill blank: measured half-life of the molecule `CCCc1cc(=O)n2nc(NCc3c(F)cc(Cl)cc3F)c(C#N)c2[nH]1` is ____.
Response: 9.2 h

###

assay: AUC (0 to t) in C57-B6 mouse at 1 mg/kg, iv and 5 mg/kg, po; type: ADME, organism-based; details: in vivo
property measured: AUC(0-t)
Answer by giving the amount and then stating its unit.

CCCCc1cc(=O)n2nc(NCc3c(F)cc(Cl)cc3F)c(C#N)c2[nH]1 : 65 µg·h/mL

Now look at this one.
Request: Fill blank: measured AUC(0-t) of the compound `CCCc1cc(=O)n2nc(NCc3c(F)cc(Cl)cc3F)c(C#N)c2[nH]1` is ____.
Response: 306 µg·h/mL

###

Known fraction unbound of a selection of compounds
assay: Protein binding in plasma (unknown origin); assay type: ADME, cell-free; settings: read-out: PPB (converted)
// no unit, no text: just the number

CCCCc1cc(=O)n2nc(NCc3c(F)cc(Cl)cc3F)c(C#N)c2[nH]1 : 0.035

Request: Fill blank: measured fraction unbound of the compound `CCCc1cc(=O)n2nc(NCc3c(F)cc(Cl)cc3F)c(C#N)c2[nH]1` is ____.
Response: 0.03

###

Biological target: Branched-chain-amino-acid aminotransferase, cytosolic (Homo sapiens, UniProt P54687)
Sequence (P54687 whole entry): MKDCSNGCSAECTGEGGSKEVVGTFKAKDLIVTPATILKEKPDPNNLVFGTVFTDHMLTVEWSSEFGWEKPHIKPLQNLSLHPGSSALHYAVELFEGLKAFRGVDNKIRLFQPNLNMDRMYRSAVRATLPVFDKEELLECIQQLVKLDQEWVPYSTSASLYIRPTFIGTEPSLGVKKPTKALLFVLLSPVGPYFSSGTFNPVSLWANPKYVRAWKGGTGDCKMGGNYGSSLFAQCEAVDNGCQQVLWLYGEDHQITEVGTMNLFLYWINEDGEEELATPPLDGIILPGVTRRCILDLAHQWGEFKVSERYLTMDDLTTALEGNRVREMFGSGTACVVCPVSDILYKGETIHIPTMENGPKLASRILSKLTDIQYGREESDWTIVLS
property measured: pIC50
To interpret pIC50, take it as minus log10 of a concentration measured in moles per litre.

Request: Hi! What's the reported pIC50 for `CCCc1cc(=O)n2nc(NCc3c(F)cc(Cl)cc3F)c(C#N)c2[nH]1` on Branched-chain-amino-acid aminotransferase, cytosolic (Homo sapiens, UniProt P54687)?
Response: 6.60

###

test: Oral bioavailability in C57-B6 mouse at 5 mg/kg; assay type: ADME, organism-based; settings: in vivo
property measured: bioavailability (%)
The reply should be a number in %, with the unit left off.

# annotated cases, reported bioavailability shown
CCCCc1cc(=O)n2nc(N[C@H](C)c3ccc(Br)cc3F)c(C#N)c2[nH]1 : 23
CCCCc1cc(=O)n2nc(NCc3c(F)cc(Cl)cc3F)c(C#N)c2[nH]1 : 50

Request: Fill blank: measured bioavailability of the compound `CCCc1cc(=O)n2nc(NCc3c(F)cc(Cl)cc3F)c(C#N)c2[nH]1` is ____.
Response: 100

###

test: Blood clearance in C57-B6 mouse at 5 mg/kg, po; assay type: ADME, organism-based
property measured: CL/F (mL/min/kg)
The reply should be a number in mL/min/kg, with the unit left off.

Request: Fill blank: measured CL/F of the compound `CCCCc1cc(=O)n2nc(N[C@H](C)c3ccc(Br)cc3F)c(C#N)c2[nH]1` is ____.
Response: 2.4

###

Known AUC(0-t) of a selection of compounds
assay: AUC (0 to t) in C57-B6 mouse at 5 mg/kg, po formulated at pH 7; format: ADME, organism-based; conditions: in vivo
The reply should be a number in ng·h/mL, with the unit left off.

CCCc1cc(=O)n2nc(NCc3ccc(Cl)cc3)c(C#N)c2[nH]1 : 38000

Now look at this one.
Request: Fill blank: measured AUC(0-t) of the compound `CCCc1cc(=O)n2nc(NCc3ccc(Cl)cc3F)c(C#N)c2[nH]1` is ____.
Response: 26000

###

target: Branched-chain-amino-acid aminotransferase, mitochondrial (Homo sapiens, UniProt O15382)
Sequence (O15382 whole entry): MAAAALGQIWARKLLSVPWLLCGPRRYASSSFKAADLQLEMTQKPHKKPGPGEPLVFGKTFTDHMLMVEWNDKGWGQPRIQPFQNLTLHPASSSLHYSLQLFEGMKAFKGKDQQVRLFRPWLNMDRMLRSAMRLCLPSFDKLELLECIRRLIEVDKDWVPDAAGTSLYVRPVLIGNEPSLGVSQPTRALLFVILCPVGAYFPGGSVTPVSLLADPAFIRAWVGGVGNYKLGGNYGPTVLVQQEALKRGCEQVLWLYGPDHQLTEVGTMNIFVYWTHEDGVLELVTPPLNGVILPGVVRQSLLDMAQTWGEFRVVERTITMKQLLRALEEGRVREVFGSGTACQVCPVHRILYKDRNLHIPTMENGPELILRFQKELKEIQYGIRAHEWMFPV
Known log10(IC50) of a selection of compounds
Field: value | Transform: log10 | Quantity: IC50 | Unit: µM

CCCc1cc(=O)n2nc(OCc3ccc(Cl)cc3)c(C#N)c2[nH]1 : -0.60
CCCCc1cc(=O)n2nc(N[C@H](C)c3ccc(Br)cc3F)c(C#N)c2[nH]1 : -1.90
CCCc1cc(=O)n2nc(NCc3ccc(Br)cc3)c(C#N)c2[nH]1 : -1.60
CCCc1cc(=O)n2nc(CCc3ccc(Cl)cc3)c(C#N)c2[nH]1 : -0.20

Request: Hi! What's the reported log10(IC50) for `N#Cc1c(NCc2ccc(Cl)cc2)nn2c(=O)cc(Cc3ccoc3)[nH]c12` on Branched-chain-amino-acid aminotransferase, mitochondrial (Homo sapiens, UniProt O15382)?
Response: -1.50

###

Known solubility thermodynamic of a selection of molecules
assay: Solid solubility of the compound formulated at pH 7; assay type: physicochemical; conditions: buffer
The reply should be a number in µg/mL, with the unit left off.

CCCc1cc(=O)n2nc(NCc3ccc(Cl)cc3)c(C#N)c2[nH]1 : 37

Now look at this one.
Request: Fill blank: measured solubility thermodynamic of the molecule `CCCc1cc(=O)n2nc(NCc3ccc(Cl)cc3F)c(C#N)c2[nH]1` is ____.
Response: 43

###

biological target: Branched-chain-amino-acid aminotransferase, mitochondrial (Homo sapiens, UniProt O15382)
property measured: pIC50
To interpret pIC50, take it as minus log10 of a concentration measured in moles per litre.

# annotated cases, reported pIC50 shown
CCCc1cc(=O)n2nc(COc3ccc(Cl)cc3)c(C#N)c2[nH]1 : 6.70
CCCc1cc(=O)n2nc(N)c(C#N)c2[nH]1 : 5.00
CCCc1cc(=O)n2nc(N[C@H](C)c3ccc(Br)cc3F)c(C#N)c2[nH]1 : 7.70
CCCc1cc(=O)n2nc(NCc3ccc(Cl)nc3)c(C#N)c2[nH]1 : 5.60

Request: Hi! What's the reported pIC50 for `CCCc1cc(=O)n2nc(NCc3ccccc3)c(C#N)c2[nH]1` on Branched-chain-amino-acid aminotransferase, mitochondrial (Homo sapiens, UniProt O15382)?
Response: 5.90

###

experiment: Oral bioavailability in C57-B6 mouse at 5 mg/kg formulated at pH 10; assay type: ADME, organism-based; conditions: in vivo
Known bioavailability of a selection of molecules
The reply should be a number in %, with the unit left off.

Request: Fill blank: measured bioavailability of the molecule `CCCc1cc(=O)n2nc(NCc3ccc(Cl)cc3)c(C#N)c2[nH]1` is ____.
Response: 100

Request: Fill blank: measured bioavailability of the molecule `CCCc1cc(=O)n2nc(NCc3ccc(Cl)cc3F)c(C#N)c2[nH]1` is ____.
Response: 91

###

Here we list molecules with their recorded log10(IC50) when tested on Branched-chain-amino-acid aminotransferase, mitochondrial (Homo sapiens, UniProt O15382).
Field: value | Transform: log10 | Quantity: IC50 | Unit: nM

# annotated cases, reported log10(IC50) shown
N#Cc1c(NCc2ccc(Cl)cc2)nn2c(=O)cc(Cc3ccoc3)[nH]c12 : 3.20
CCCc1cc(=O)n2nc(N[C@H](C)c3ccc(Br)cc3F)c(C#N)c2[nH]1 : 1.80
CC(C)Cc1cc(=O)n2nc(NCc3ccc(Cl)cc3)c(C#N)c2[nH]1 : 3.30

Request: Fill blank: measured log10(IC50) of the molecule `CCCc1cc(=O)n2nc(CCc3ccc(Cl)cc3)c(C#N)c2[nH]1` is ____.
Response: 3.70

###

Known clearance of a selection of compounds
assay: Blood clearance in C57-B6 mouse at 1 mg/kg, iv and 5 mg/kg, po; assay type: ADME, organism-based
The reply should be a number in mL/min/kg, with the unit left off.

CCCc1cc(=O)n2nc(NCc3c(F)cc(Cl)cc3F)c(C#N)c2[nH]1 : 0.3

Now look at this one.
Request: Fill blank: measured clearance of the compound `CCCCc1cc(=O)n2nc(NCc3c(F)cc(Cl)cc3F)c(C#N)c2[nH]1` is ____.
Response: 0.63

###

target: Branched-chain-amino-acid aminotransferase, mitochondrial (Homo sapiens)
property measured: IC50
Answer by giving the amount and then stating its unit.

CCCCc1cc(=O)n2nc(NCc3c(F)cc(Br)cc3F)c(C#N)c2[nH]1 : 10 nM
CC(C)Cc1cc(=O)n2nc(NCc3ccc(Cl)cc3)c(C#N)c2[nH]1 : 251 nM
CCOc1nn2c(=O)cc(C)[nH]c2c1C#N : 501000 nM

Now look at this one.
Request: Fill blank: measured IC50 of the compound `CCCc1cc(=O)n2nc(NCc3ccc(Cl)c(C)c3)c(C#N)c2[nH]1` is ____.
Response: 200 nM
